Test system: MDA-MB-435
protocol.notes: NCI tumour cell line growth inhibition, 48 h
The source made the active and inactive calls. Cut-off read from the data, not from the text of the source: active = GI50 up to about 1.1 µM and inactive = higher.
quantity.kind: GI50

## Input // lookup GI50 for Cc1cc(=O)c2cc(/N=C/c3ccc([N+](=O)[O-])o3)ccc2o1
## Output 44.9 µM (inactive)

## Input // next record Fc1c(F)c(C(F)(F)F)c(F)c(F)c1N/N=C/c1cn(Cc2ccccc2)c2ccccc12
## Output 22.1 µM (inactive)

## Input // next record COC(=O)[C@@H]1C=CCN1S(=O)(=O)c1ccc(C)cc1
## Output 13.2 µM (inactive)

## Input // next record O=C(O)CCSCc1ccc(I)cc1
## Output > 100 µM (inactive)

## Input // next record Cc1ccc(Nc2nc(O)c3[nH]cnc3n2)cc1CO
## Output 15.8 µM (inactive)

## Input // next record CC(C)CNC(=O)Cn1c(-c2ccccc2)cc2ccccc21
## Output > 100 µM (inactive)

---

Test system: KM12
protocol.notes: NCI tumour cell line growth inhibition, 48 h
The source made the active and inactive calls. Cut-off read from the data, not from the text of the source: active = GI50 up to about 1.1 µM and inactive = higher. Starred links: 1 amine or outer side, 2 acyl side, 3 side chain; linkers in the order of their positions; H or OH if unused. Positions of bridges follow the written chain, without caps; N, C: chain ends. Non-standard residues stand in square brackets, D forms with d. Residues, ends and D or L forms follow the SMILES beside them. Chains are numbered I, II in the order given. Actinocin(9to1) = Cc1c2oc3c(C)ccc(C(=O)[*:1])c3nc-2c(C(=O)[*:2])c(N)c1=O; NMeF = CN[CH](Cc1ccccc1)C(=O)O; Sar = CNCC(=O)O
Response enum: class 1 = active, class 0 = inactive

## Input Please let me know the test result on file for CC(=O)c1c(-c2ccco2)c(C#N)c(=S)n(C2OC(CO)C(O)C(O)C2O)c1C (centres undefined) .
## Output class 0

## Input // next record Cc1cc2c(nn1)CCc1c-2no[n+]1[O-]
## Output class 0

## Input // next record Cc1c2cc[n+](COC(=O)c3ccccc3)cc2c(C)c2c1[nH]c1ccccc12
## Output class 1

## Input // next record Cc1c2oc3c(C)ccc(C(=O)NC4C(=O)NC(C(C)C)C(=O)N5CCCC5C(=O)N(C)CC(=O)N(C)C(Cc5ccccc5)C(=O)OC4C)c3nc-2c(C(=O)NC2C(=O)NC(C(C)C)C(=O)N3CCCC3C(=O)N(C)CC(=O)N(C)C(Cc3ccccc3)C(=O)OC2C)c(N)c1=O (centres undefined) (I: TVP[Sar][NMeF] / II: TVP[Sar][NMeF]; ester I:1-I:C, II:1-II:C; linker I:N-II:N via Actinocin(9to1); configuration not given here)
## Output class 1

## Input // next record CN/C(=N\n1cnnc1)OC
## Output class 0

## Input // next record COC(=O)CC1N/C(=N\C#N)N(CCc2c[nH]c3ccccc23)C1=O (centres undefined)
## Output class 0

## Input // next record COC1OC2COC1(OCc1ccccc1)C1OC(C)(C)OC21 (centres undefined)
## Output class 0

## Input // next record Cc1ccc(C(=O)C(Cl)C(Cl)c2ccc(C)cc2)cc1 (centres undefined)
## Output class 0

## Input // next record CCN(CC)c1ccc(/C=C/C2=NN(c3cccc(S(=O)(=O)O)c3)C3(C2)SCC(=O)N3c2nc3ccccc3s2)cc1 (centres undefined)
## Output class 0

## Input // next record CC1=CC2CCC1(C)C/C2=C(/C)OC=O (centres undefined)
## Output class 0

## Input // next record O=C1C=C(c2ccccc2)O/C1=C\C(=O)c1ccc(Cl)cc1
## Output class 0

## Input // next record O=S(=O)(O)C(F)(F)C(F)(F)C(F)(F)C(F)(F)F
## Output class 0

## Input // next record CC(=O)NC(CCCCN(Cc1ccccc1)C(=O)NCCCl)C(=O)NCc1ccccc1 (centres undefined)
## Output class 0

## Input // next record COc1ccc(/N=N/C(=O)NC(CC(C)C)C(=O)NC(C)C(=O)O)cc1 (centres undefined)
## Output class 0

## Input // next record COc1ccc(N2C(Cl)C(=O)C2c2c[nH]c3ccccc23)cc1 (centres undefined)
## Output class 0

## Input // next record O=C1c2cc(Cc3ccccc3)c(=O)c(Cc3ccccc3)cc2C(=O)c2cc(Cc3ccccc3)c(=O)c(Cc3ccccc3)cc21
## Output class 0

## Input // next record COC[C@H]1C(=O)NCC(=O)N2N=CCC[C@H]2C(=O)N(O)[C@H](C)C(=O)O[C@@H](C(C)C)[C@H](NC(=O)[C@@](C)(O)[C@]2(O)CC[C@@H](CC(C)C)[C@H](C)O2)C(=O)N2NCCC[C@@H]2C(=O)N1O
## Output class 1

## Input // next record O=C(O)CCCNS(=O)(=O)c1ccccc1
## Output class 0

## Input // next record C1CCC(N=C2N(C3CCCCC3)C(=NC3CCCCC3)N2C2CCCCC2)CC1
## Output class 0
